Would you kindly list protein stability index for each of these variants?
B1: ZNF8 (parent)
chain: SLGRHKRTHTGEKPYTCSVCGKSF

Variants of: B1
Test: protein stability index of a GFP-peptide fusion (GPS, HEK-293T) (PSI 1-6); higher = more stable;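 note: lentivirally expressed fusions sorted by FACS into six bins by GFP to DsRed ratio, PSI derived from sequencing read proportions per bin multiplied by bin number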
Settings: c terminus: a fixed tail appended
Give bare numbers.

H9P :: 2.96
S1H :: 3.08

Shift focus to the following entry.
Q: Need protein stability index of C20A , thanks.
Result: 3.05
